# Method summary: growth inhibition of non-replicating M. tuberculosis (AID 488890);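 also: plate controls were DMSO cells for no effect and high antibiotic wells for full effect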
# Run parameters: Mycobacterium tuberculosis non-replicating, at 25 µM, stronger effect = higher value
The whole screen tested about 320,000 compounds, of which about 1,300 (0.41%) were called active. Another 3% or so got no clear call; they are omitted. These entries were drawn from the full list. Measured potencies and affinities stand elsewhere.
Property label: inhibition (%)
Record the value in %, omitting the unit from your answer.

O=C(N/N=C/C=C/c1ccccc1[N+](=O)[O-])c1cccnc1 :: -8

Q) Return reported inhibition; argument: O=C(N/N=C/C=C/c1ccco1)c1cnccn1
A) -12.5

Q) Return reported inhibition; argument: Cc1cccc(NC(=O)C[n+]2ccccc2)c1
A) 16.1

Q) Return reported inhibition; argument: O=C(CCSc1nnc(-c2ccco2)o1)N1CCOCC1
A) 75.9

Q) Return reported inhibition; argument: O=C(CCSc1ccccc1)N1CCN(c2ccccc2)CC1
A) 10.9

Q) Return reported inhibition; argument: COc1ccc(C2=NN(C(=O)CN3CCCC3)C(c3ccc(OC)cc3)C2)cc1 (centres undefined)
A) -5.46

Sourced from PubChem BioAssay AID488890
